- target entity: Peptidyl-prolyl cis-trans isomerase FKBP1A (Homo sapiens, UniProt P62942)
- Sequence (P62942 whole entry): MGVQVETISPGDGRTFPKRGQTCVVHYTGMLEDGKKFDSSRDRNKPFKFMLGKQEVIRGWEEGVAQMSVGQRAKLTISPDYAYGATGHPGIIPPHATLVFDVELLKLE
- measurement protocol: Binding affinity to FKBP12 by competitive fluorescence polarization assay
- experimental conditions: read-out: IC50

# mol, target entity, IC50 (µM)
records = [
    ("COc1ccc(CC[C@@H](NC(=O)[C@@H]2CCCCN2S(=O)(=O)c2ccc3[nH]c(=O)sc3c2)c2cccc(OCC(=O)O)c2)cc1OC", "Peptidyl-prolyl cis-trans isomerase FKBP1A (Homo sapiens, UniProt P62942)", 1.4),
    ("COc1ccc(CC[C@@H](OC(=O)[C@@H]2CCCCN2S(=O)(=O)c2ccc3nc(C)sc3c2)c2cccc(OCC(=O)O)c2)cc1OC", "Peptidyl-prolyl cis-trans isomerase FKBP1A (Homo sapiens, UniProt P62942)", 1.2),
    ("COc1ccc(CC[C@@H](OC(=O)[C@@H]2CCCCN2S(=O)(=O)c2ccc3c(c2)CC(=O)N3)c2cccc(OCC(=O)O)c2)cc1OC", "Peptidyl-prolyl cis-trans isomerase FKBP1A (Homo sapiens, UniProt P62942)", 0.66),
    ("COc1ccc(CC[C@@H](OC(=O)[C@@H]2CCCCN2S(=O)(=O)c2cccc(Cl)c2)c2cccc(OCC(=O)O)c2)cc1OC", "Peptidyl-prolyl cis-trans isomerase FKBP1A (Homo sapiens, UniProt P62942)", 1.2),
]
